These data points were gathered from patent US6790865B2.

Biological target: UniProt M3YEU4
Sequence (M3YEU4 entry or part of it): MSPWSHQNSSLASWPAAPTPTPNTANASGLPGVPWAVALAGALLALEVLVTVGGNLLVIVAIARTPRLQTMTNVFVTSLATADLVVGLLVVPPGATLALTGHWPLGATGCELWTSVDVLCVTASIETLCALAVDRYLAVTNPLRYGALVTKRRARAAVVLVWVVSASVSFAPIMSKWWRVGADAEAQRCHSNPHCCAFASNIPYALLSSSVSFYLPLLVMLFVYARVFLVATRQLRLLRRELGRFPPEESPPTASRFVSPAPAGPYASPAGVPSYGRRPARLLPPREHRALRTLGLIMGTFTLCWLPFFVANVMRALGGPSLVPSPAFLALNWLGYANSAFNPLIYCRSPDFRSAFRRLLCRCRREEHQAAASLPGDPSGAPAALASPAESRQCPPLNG
Assay: β3-adrenoceptor stimulating effects, isolated ferret urinary bladder smooth muscle relaxation (Magnus method)
Conditions: isolated male ferret urinary bladder smooth muscle strips; 0% = maximal relaxation after 10^−5M forskolin; read-out: EC50 (concentration producing 50% decrease of urinary bladder tension)
observed.property: EC50 (nM)
// units = nM; emit number, no label

Inquiry: Report EC50 for C[C@H](Cc1ccc(OCC(=O)O)cc1)NC[C@H](O)c1cccc(Cl)c1 [BRL-37344, reference compound] please.
Reply text: 1.6

###

Biological target: β2-adrenoceptor (Rattus norvegicus, UniProt P10608)
Construct: Uteri of pregnant SD rats (pregnancy day 21) were isolated
Sequence (P10608 whole entry): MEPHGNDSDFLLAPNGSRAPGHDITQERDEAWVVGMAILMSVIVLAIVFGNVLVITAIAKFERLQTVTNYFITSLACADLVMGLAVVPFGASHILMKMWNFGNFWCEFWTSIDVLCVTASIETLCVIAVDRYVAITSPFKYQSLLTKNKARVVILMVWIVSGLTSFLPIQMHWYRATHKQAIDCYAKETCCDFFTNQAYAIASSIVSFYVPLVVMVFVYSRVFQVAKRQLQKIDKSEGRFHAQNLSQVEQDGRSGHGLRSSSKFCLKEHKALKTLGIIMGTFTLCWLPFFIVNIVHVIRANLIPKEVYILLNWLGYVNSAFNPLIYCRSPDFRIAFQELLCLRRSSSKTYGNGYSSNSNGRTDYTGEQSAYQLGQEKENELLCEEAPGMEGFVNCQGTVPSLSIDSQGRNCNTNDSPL
Experiment: β2-adrenoceptor stimulating effects, isolated pregnant rat uterus contraction inhibition (Magnus method)
Conditions: isolated uteri of pregnant SD rats (pregnancy day 21); spontaneous contractions summed over 5 minutes; read-out: EC50 (concentration producing 50% inhibition of uterine contraction)
Items are presented alongside their recorded EC50.
// units = µM; emit number, no label

Some compounds with known EC50 results, for comparison:
compound: C[C@H](NCCc1ccc(OC(C)(C)C(=O)O)c(Cl)c1)[C@H](O)c1ccc(O)cc1 [Compound 11]
EC50 / µM: 38

compound: C[C@H](NCCc1ccc(NC(C)(C)C(=O)O)cc1)[C@H](O)c1ccc(O)cc1 [Compound 13]
EC50 / µM: 11

Inquiry: Report EC50 for C[C@H](NCCc1ccc(OC(C)(C)C(=O)O)cc1)[C@H](O)c1ccc(O)cc1 [Compound 10] please.
Reply text: 3.9

Inquiry: Repeat with C[C@H](NCCc1ccc(OC(C)(C)C(=O)O)cc1Cl)[C@H](O)c1ccc(O)cc1 [Compound 9]
Reply text: 3.1

###

Target: β1-adrenoceptor (Rattus norvegicus)
Construct: Atria of male SD rats (250 to 400 g in body weight) were isolated
Sequence (P18090 whole entry): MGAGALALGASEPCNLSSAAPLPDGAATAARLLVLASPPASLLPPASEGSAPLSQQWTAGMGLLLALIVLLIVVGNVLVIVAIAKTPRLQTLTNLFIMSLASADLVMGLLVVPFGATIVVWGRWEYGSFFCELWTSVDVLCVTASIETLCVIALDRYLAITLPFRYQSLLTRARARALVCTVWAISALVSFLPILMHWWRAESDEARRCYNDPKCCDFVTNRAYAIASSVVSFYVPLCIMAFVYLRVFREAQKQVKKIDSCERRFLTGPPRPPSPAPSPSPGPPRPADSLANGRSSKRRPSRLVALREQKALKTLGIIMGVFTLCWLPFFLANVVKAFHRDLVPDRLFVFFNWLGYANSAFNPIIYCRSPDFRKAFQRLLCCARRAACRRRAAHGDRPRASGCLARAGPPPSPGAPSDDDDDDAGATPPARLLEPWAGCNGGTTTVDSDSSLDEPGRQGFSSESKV
Test: β1-adrenoceptor stimulating effects, isolated rat atria heart rate increase (Magnus method)
Details: isolated male SD rat atria; 100% = heart rate increase after 10^−8M isoproterenol; read-out: EC50 (concentration producing 50% increase of heart rate)
Where a name gives a salt, the structure may show the parent alone.
Items are presented alongside their recorded EC50.
// units = µM; emit number, no label

Inquiry: Please provide the recorded EC50 for C[C@H](NCCc1ccc(NC(C)(C)C(=O)O)cc1Cl)[C@H](O)c1ccc(O)cc1 , tested on β1-adrenoceptor (Rattus norvegicus).
Reply text: 2.2

Inquiry: Repeat with C[C@H](NCCc1ccc(OC(C)(C)C(=O)O)cc1Cl)[C@H](O)c1ccc(O)cc1
Reply text: 35

Inquiry: Repeat with C[C@H](Cc1ccc(OCC(=O)O)cc1)NC[C@H](O)c1cccc(Cl)c1 [BRL-37344, reference compound]
Reply text: 0.27

Inquiry: Repeat with CCOC(=O)C(C)(C)Oc1ccc(CCN[C@@H](C)[C@H](O)c2ccc(O)cc2)c(Cl)c1 [Compound 7, hydrochloride]
Reply text: 0.3

Inquiry: Repeat with C[C@H](NCCc1ccc(NC(C)(C)C(=O)O)cc1)[C@H](O)c1ccc(O)cc1
Reply text: 39

###

Target: β2-adrenoceptor (Rattus norvegicus, UniProt P10608)
Construct: Uteri of pregnant SD rats (pregnancy day 21) were isolated
Test: β2-adrenoceptor stimulating effects, isolated pregnant rat uterus contraction inhibition (Magnus method)
Conditions: isolated uteri of pregnant SD rats (pregnancy day 21); spontaneous contractions summed over 5 minutes; read-out: EC50 (concentration producing 50% inhibition of uterine contraction)
Structures can show the parent of a compound that is named as a salt.
Items are presented alongside their recorded EC50.

compound: CCOC(=O)C(C)(C)Oc1ccc(CCN[C@@H](C)[C@H](O)c2ccc(O)cc2)c(Cl)c1 [Compound 7, hydrochloride]
result: 45 nM
//
compound: Cc1cc(CCN[C@@H](C)[C@H](O)c2ccc(O)cc2)ccc1OC(C)(C)C(=O)O
result: > 100000 nM
//
compound: C[C@H](Cc1ccc(OCC(=O)O)cc1)NC[C@H](O)c1cccc(Cl)c1 [BRL-37344, reference compound]
result: 9 nM

// next item, EC50 requested
Inquiry: Report EC50 for C[C@H](NCCc1ccc(NC(C)(C)C(=O)O)cc1Cl)[C@H](O)c1ccc(O)cc1 please.
Reply text: 1400 nM
